molecular target: MOS1 (Drosophila mauritiana, UniProt Q7JQ07); construct: involving the full-length Mos1 transposase (MOS1) was recently solved; made in house; test: MOS1 in vitro activities, overall statements of the discussion; assay type: biochemical, D. mauritiana; conditions: in vitro assays of MOS1 activities; discussion
Sequence (Q7JQ07 whole entry): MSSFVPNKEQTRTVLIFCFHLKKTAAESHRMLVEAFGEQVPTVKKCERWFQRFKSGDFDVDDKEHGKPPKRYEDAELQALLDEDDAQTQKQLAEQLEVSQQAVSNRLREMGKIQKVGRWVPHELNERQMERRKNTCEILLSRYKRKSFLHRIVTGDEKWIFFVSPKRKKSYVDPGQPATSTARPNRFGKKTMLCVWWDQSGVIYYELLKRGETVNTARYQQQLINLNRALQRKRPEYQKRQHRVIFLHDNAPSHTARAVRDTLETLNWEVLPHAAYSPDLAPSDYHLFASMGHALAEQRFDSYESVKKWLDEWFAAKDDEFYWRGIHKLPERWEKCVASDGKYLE
recorded_metric: activity on MOS1

1) OCC1OC(Oc2cc(C=Cc3ccc(O)cc3)c3c(c2)OC(c2ccc(O)cc2)C3c2cc(O)cc(O)c2)C(O)C(O)C1O (stereo not drawn) [E-ε-viniferin glucoside] | not active
2) Oc1ccc([C@H]2c3c(O)cc(O)cc3[C@H]3c4c(cc(O)cc4C2C2c4cc(O)cc5c4[C@H](c4cc(O)cc(O)c4[C@@H]2c2ccc(O)cc2)[C@@H](c2ccc(O)cc2)O5)O[C@@H]3c2ccc(O)cc2)cc1 (stereo partly drawn) [isohopeaphenol] | not active
3) Oc1ccc(/C=C/c2cc(O)cc(O)c2)cc1 [E-resveratrol] | not active
